Target: Adenosine receptor A1 (Homo sapiens, UniProt P30542)
Sequence (P30542 whole entry): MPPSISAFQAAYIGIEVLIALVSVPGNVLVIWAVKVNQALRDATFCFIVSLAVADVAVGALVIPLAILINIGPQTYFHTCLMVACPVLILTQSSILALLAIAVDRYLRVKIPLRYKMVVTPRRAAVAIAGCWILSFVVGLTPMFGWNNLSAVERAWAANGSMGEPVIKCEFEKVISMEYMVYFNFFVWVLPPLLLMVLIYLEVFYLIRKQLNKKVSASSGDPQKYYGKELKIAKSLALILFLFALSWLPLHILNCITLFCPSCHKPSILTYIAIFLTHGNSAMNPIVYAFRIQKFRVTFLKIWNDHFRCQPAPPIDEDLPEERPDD
Measurement Kind: AC50

# Compound, Test Result
measured = [
    ("CN(C)/N=N/c1[nH]cnc1C(N)=O", "> 10 µM"),
    ("CC(=O)OCC(=O)[C@@]12N=C(C)O[C@@H]1C[C@H]1[C@@H]3CCC4=CC(=O)C=C[C@]4(C)[C@H]3[C@@H](O)C[C@@]12C", "> 30 µM"),
    ("Nc1nc(/C(=C/CC(=O)O)C(=O)N[C@@H]2C(=O)N3C(C(=O)O)=CCS[C@H]23)cs1", "> 30 µM"),
    ("CC(C)C[C@H]1C(=O)N2CCC[C@H]2[C@]2(O)O[C@](NC(=O)[C@@H]3C=C4c5cccc6[nH]c(Br)c(c56)C[C@H]4N(C)C3)(C(C)C)C(=O)N12", "> 30 µM"),
    ("CN1C(=O)CCS(=O)(=O)C1c1ccc(Cl)cc1 (stereo unspecified)", "> 10 µM"),
    ("O=[N+]([O-])c1cn2c(n1)OC[C@@H](OCc1ccc(OC(F)(F)F)cc1)C2", "> 30 µM"),
]

----------
Reported AC50 for target or system Sodium-dependent serotonin transporter (Homo sapiens, UniProt P31645), by entry. Note: assay procedure not described here.
Measurement Kind: AC50 (µM)

# Compound, Value Unit, Result Qualifier, Test Result
rows = [
    ("CN(C)CCN1C(=O)c2ccccc2N(C)c2ccccc21 [DIBENZEPIN]", "µM", "=", 1.32),
    ("CN1CCN(C2=Nc3ccccc3Sc3ccc(Cl)cc32)CC1", "µM", "=", 4.87),
    ("N[C@H]1C(O)O[C@H](CO)[C@@H](O)[C@@H]1O (stereo partly drawn)", "µM", ">", 30),
]

----------
What follows is a collection of AC50 values obtained with Thromboxane A2 receptor (Homo sapiens, UniProt P21731).
Sequence (P21731 whole entry): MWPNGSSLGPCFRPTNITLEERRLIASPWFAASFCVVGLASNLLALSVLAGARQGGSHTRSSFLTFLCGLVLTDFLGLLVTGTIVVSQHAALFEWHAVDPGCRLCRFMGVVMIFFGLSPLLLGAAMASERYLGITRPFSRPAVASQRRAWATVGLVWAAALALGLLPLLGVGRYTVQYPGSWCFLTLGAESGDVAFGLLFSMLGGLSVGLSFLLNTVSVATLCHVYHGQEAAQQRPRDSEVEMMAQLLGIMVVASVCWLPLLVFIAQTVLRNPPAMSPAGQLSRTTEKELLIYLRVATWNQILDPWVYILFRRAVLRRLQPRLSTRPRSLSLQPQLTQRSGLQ
Measurement Kind: AC50

# Compound, Experimental Target, Measurement Kind, Test Result
records = [
    ("COC(=O)C1=C(C)NC(C)=C(C(=O)OC(C)(C)CN(C)CCC(c2ccccc2)c2ccccc2)C1c1cccc([N+](=O)[O-])c1 (stereo unspecified)", "Thromboxane A2 receptor (Homo sapiens, UniProt P21731)", "AC50", "> 30 µM"),
    ("COc1ccc(C(=O)Nc2ccccc2CCC2CCCCN2C)cc1 (stereo unspecified) [ENCAINIDE]", "Thromboxane A2 receptor (Homo sapiens, UniProt P21731)", "AC50", "> 30 µM"),
    ("CN(C)CCC=C1c2ccccc2C=Cc2ccccc21", "Thromboxane A2 receptor (Homo sapiens, UniProt P21731)", "AC50", "> 30 µM"),
    ("COc1cc2c(N)nc(N3CCN(C(=O)OCC(C)(C)O)CC3)nc2c(OC)c1OC", "Thromboxane A2 receptor (Homo sapiens, UniProt P21731)", "AC50", "> 30 µM"),
    ("CC(C)=CCC/C(C)=C/C=C/C(C)=C/C=C/C(C)=C/C=C/C=C(C)/C=C/C=C(C)/C=C/C=C(\\C)CCC=C(C)C", "Thromboxane A2 receptor (Homo sapiens, UniProt P21731)", "AC50", "> 30 µM"),
    ("CCCCCNC(=N)N/N=C/c1c[nH]c2ccc(OC)cc12", "Thromboxane A2 receptor (Homo sapiens, UniProt P21731)", "AC50", "8.39 µM"),
]

----------
Biological target: Adenosine receptor A1 (Homo sapiens, UniProt P30542)
Sequence (P30542 whole entry): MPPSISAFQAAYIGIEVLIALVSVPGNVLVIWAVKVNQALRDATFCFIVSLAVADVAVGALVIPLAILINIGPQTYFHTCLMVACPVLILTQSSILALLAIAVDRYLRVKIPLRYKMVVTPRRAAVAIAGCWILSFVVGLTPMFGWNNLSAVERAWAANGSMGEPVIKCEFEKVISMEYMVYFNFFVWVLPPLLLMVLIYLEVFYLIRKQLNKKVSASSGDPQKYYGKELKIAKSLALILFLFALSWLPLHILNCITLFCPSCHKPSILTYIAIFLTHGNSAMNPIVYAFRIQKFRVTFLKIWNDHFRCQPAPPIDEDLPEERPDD
Measurement Kind: AC50

# Compound, Test Result
data = [
    ("COC1=C(OC)C(=O)C(C/C=C(\\C)CC/C=C(\\C)CC/C=C(\\C)CC/C=C(\\C)CC/C=C(\\C)CC/C=C(\\C)CC/C=C(\\C)CC/C=C(\\C)CC/C=C(\\C)CCC=C(C)C)=C(C)C1=O [UBIDECARENONE]", "> 30 µM"),
    ("Nc1ccncc1N [AMIFAMPRIDINE]", "> 30 µM"),
    ("Cc1cn([C@H]2C=C[C@@H](CO)O2)c(=O)[nH]c1=O [STAVUDINE]", "> 30 µM"),
    ("CC[C@H]1CN2CCc3cc(OC)c(OC)cc3[C@@H]2C[C@@H]1C[C@H]1NCCc2cc(OC)c(OC)cc21 [EMETINE]", "> 30 µM"),
    ("Cc1cc(C#N)cc(C)c1Oc1nc(Nc2ccc(C#N)cc2)nc(N)c1Br [ETRAVIRINE]", "22.5 µM"),
    ("CC[C@H]1OC(=O)[C@H](C)[C@@H](O[C@H]2C[C@@](C)(OC)[C@@H](O)[C@H](C)O2)[C@H](C)[C@@H](O[C@@H]2O[C@H](C)C[C@H](N(C)C)[C@H]2O)[C@](C)(O)C[C@@H](C)CN(C)[C@H](C)[C@@H](O)[C@]1(C)O [AZITHROMYCIN]", "> 30 µM"),
    ("CCc1oc2ccccc2c1C(=O)c1cc(I)c(O)c(I)c1 [BENZIODARONE]", "18.2 µM"),
    ("CC(C)(C)C(=O)OCOC(=O)[C@@H]1N2C(=O)[C@@H](NC(=O)[C@H](N)c3ccccc3)[C@H]2SC1(C)C [PIVAMPICILLIN]", "> 30 µM"),
    ("Clc1cc(Cl)c(OCC#CI)cc1Cl [HALOPROGIN]", "15.4 µM"),
    ("COCCCN1CCC(NC(=O)c2cc(Cl)c(N)c3c2OCC3)CC1 [PRUCALOPRIDE]", "> 30 µM"),
    ("CCCCS(=O)(=O)N[C@@H](Cc1ccc(OCCCCC2CCNCC2)cc1)C(=O)O [TIROFIBAN]", "> 30 µM"),
    ("CCC1=C(C)CN(C(=O)NCCc2ccc(S(=O)(=O)NC(=O)N[C@H]3CC[C@H](C)CC3)cc2)C1=O [GLIMEPIRIDE]", "> 30 µM"),
    ("O=C(Cc1ccc(-c2ccccc2)cc1)Nc1ccccn1 [DIFENPIRAMIDE]", "> 30 µM"),
    ("CCOC(=O)[C@H](CCc1ccccc1)N[C@@H](C)C(=O)N1[C@H](C(=O)O)C[C@H]2CCCC[C@@H]21 [TRANDOLAPRIL]", "> 30 µM"),
    ("COc1ccccc1N1CCN(CC(O)COc2cccc3ccccc23)CC1 (stereo not given) [NAFTOPIDIL]", "> 30 µM"),
]

----------
Below: a set of entries, each annotated with reported AC50.
Target: Vasopressin V1a receptor (Homo sapiens); note: assay procedure not described here
Sequence (P37288 whole entry): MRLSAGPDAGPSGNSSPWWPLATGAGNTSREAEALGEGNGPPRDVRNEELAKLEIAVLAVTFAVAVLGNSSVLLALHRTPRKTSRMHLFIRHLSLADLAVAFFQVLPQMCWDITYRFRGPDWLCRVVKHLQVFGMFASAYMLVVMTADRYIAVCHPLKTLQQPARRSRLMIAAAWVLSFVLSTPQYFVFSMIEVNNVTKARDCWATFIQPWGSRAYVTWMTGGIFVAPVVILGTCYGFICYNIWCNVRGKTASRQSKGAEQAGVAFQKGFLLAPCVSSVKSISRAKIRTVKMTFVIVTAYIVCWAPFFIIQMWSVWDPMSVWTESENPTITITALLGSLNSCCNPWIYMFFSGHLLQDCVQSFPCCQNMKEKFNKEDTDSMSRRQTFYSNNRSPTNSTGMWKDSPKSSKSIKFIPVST

# Molecule, AC50
rows = [
    ("Cc1ccc(-n2nccn2)c(C(=O)N2CCN(c3nc4cc(Cl)ccc4o3)CC[C@H]2C)c1 [SUVOREXANT]", "> 30 µM"),
    ("O=C(O)CCCCCCCC(=O)O [AZELAIC ACID]", "> 10 µM"),
    ("CCOC(=O)[C@H](CCc1ccccc1)N[C@@H](C)C(=O)N1[C@H](C(=O)O)C[C@@H]2CCC[C@@H]21", "> 10 µM"),
    ("Cc1c(OCC(F)(F)F)ccnc1C[S+]([O-])c1nc2ccccc2[nH]1 (stereo not drawn) [LANSOPRAZOLE]", "> 10 µM"),
    ("CN(C)CCC=C1c2ccccc2C(C)(C)c2ccccc21", "> 30 µM"),
    ("C=CCc1ccccc1OCC(O)CNC(C)C (stereo not drawn) [ALPRENOLOL]", "> 30 µM"),
    ("CC(=O)Nc1ccc(O)cc1 [ACETAMINOPHEN]", "> 30 µM"),
    ("COc1ccccc1OCCNCC(O)c1ccc(C)c(S(N)(=O)=O)c1 (stereo not drawn) [AMOSULALOL]", "> 30 µM"),
    ("CCCC1O[C@@H]2C[C@H]3[C@@H]4CCC5=CC(=O)C=C[C@]5(C)[C@H]4[C@@H](O)C[C@]3(C)[C@]2(C(=O)CO)O1 (stereo partly drawn) [BUDESONIDE]", "> 10 µM"),
    ("CC(C)C(=O)c1c(C(C)C)nn2ccccc12 [IBUDILAST]", "> 30 µM"),
    ("C[N+]1(C)CCC(OC(=O)C(O)(c2ccccc2)C2CCCC2)C1 (stereo not drawn) [GLYCOPYRRONIUM BROMIDE]", "> 30 µM"),
    ("COc1ccccc1OCC(O)CN1CCN(CC(=O)Nc2c(C)cccc2C)CC1 (stereo not drawn) [RANOLAZINE]", "> 30 µM"),
    ("Cc1cccc(C(C)c2cnc[nH]2)c1C (stereo not drawn) [MEDETOMIDINE]", "> 30 µM"),
]

This collection of values is drawn from ChEMBL document CHEMBL5291721.
